For each of the compounds below, state its growth.
- System: SK-MEL-2 melanoma
- Assay comment: NCI-60 one-dose screen, 48 h (100 = growth as untreated, 0 = no growth, -100 = all killed)
- Condition info: 10 µM unless noted
Compounds without any hit were thinned out: in the full panel of roughly 83,000, 20% have a hit. Active and inactive are the calls of the source. Rule for the calls: active = growth percent below 10; inactive = the rest.

CCCCCC1CCCCN1C(=O)OCC (stereo not given); 94.9% (inactive)

# per-item lookup of growth; items listed below
1. COc1c(N)c2c(c([N+](=O)[O-])c1OC)C(=O)OC2
2. Cc1cc2nc3c4cc([N+](=O)[O-])cc([N+](=O)[O-])c4n(CCN(C)C)c3nc2cc1C
3. COc1ccc(C2CC(=O)c3c(nc4ccc(Cl)cc4c3N)C2)cc1 (stereo not given)

["102% (inactive)", "108% (inactive)", "118% (inactive)"]

Look at each compound and report its growth.
1. Nc1c(C(=O)Nc2cccc(Br)c2)sc2nc3c(cc12)C(=O)CCC3
2. COc1ccc(C2(Cl)c3ccccc3N(c3ccccc3)c3ccccc32)cc1
3. C=CC(=O)N[C@H](Cc1ccc(-c2cc(Cl)cc(Cl)c2)cc1)[C@H](O)[C@@H](O)C(=O)O
4. Cc1ccc(Cc2cnc(NC(=O)/C=C/c3cccc(C)c3)s2)cc1
5. CCN1CCN(C(=O)[C@]23CCC(C)(C)C[C@@H]2C2=CC[C@@H]4[C@@]5(C)C/C(=C/c6ccncc6)C(=O)C(C)(C)[C@@H]5CC[C@@]4(C)[C@]2(C)CC3)CC1
6. O=C1CCN2C(=O)Nc3ccccc3C2C1 (stereo not given)
7. O=C1NC(c2ccc(Cl)c(Cl)c2)=C/C1=C\c1ccccc1

30.8% (inactive)
-39.9% (active)
90% (inactive)
51.6% (inactive)
-30.8% (active)
110% (inactive)
107% (inactive)

# map each compound to its growth
1. O=C(Nc1ccc(/C=C2\SC(=O)N(Cc3ccc(OC(F)(F)F)cc3)C2=O)cc1)c1ccc(Cl)c([N+](=O)[O-])c1
2. CC(C)=CCC/C(C)=C/CC/C(C)=C/CC/C(C)=C/CSC[C@H](NC(=O)CCCCCN1CCN(C)CC1)C(=O)NC1CCCCC1
3. COc1ccc(/C=C/C(=O)c2ccc([N+](=O)[O-])cc2)cc1
4. Cc1ccncc1C(=O)O
5. CCCC(=O)N1CCCCC1CC (stereo not given)

1: 92.6% (inactive); 2: 97.6% (inactive); 3: 98.9% (inactive); 4: 121% (inactive); 5: 109% (inactive)

I have 4 compounds here; please give me growth for each one.
1. CC(=O)c1c(C)[nH]c(-c2nc3ccc(N4CCN(C)CC4)cc3[nH]2)c1-c1ccc(N(C)C)cc1
2. COc1ccc(CCN2C(=O)C(C)(C)SC2=S)cc1OC
3. CN1CCN(c2ccc3nc(-c4[nH]ncc4Nc4ncnc5c4OCCCN5)[nH]c3c2)CC1
4. NCCn1cc(-c2nc(-c3c[nH]c4ncccc34)cs2)c2cc(Br)ccc21

1: 64.3% (inactive); 2: 107% (inactive); 3: -56.1% (active); 4: 101% (inactive)
